Cited source for all entries: patent US20210380702A1

Target: T1, recombinant cynomolgus monkey PD-L1 with a C-terminal mouse IgG2a Fc tag (cynomolgus monkey (Macaca fascicularis))
T1 construct: also called MfPD-L1-mFc; monkey PD-L1-mFc
T1 sequence (chain, as listed by the source limits assumed): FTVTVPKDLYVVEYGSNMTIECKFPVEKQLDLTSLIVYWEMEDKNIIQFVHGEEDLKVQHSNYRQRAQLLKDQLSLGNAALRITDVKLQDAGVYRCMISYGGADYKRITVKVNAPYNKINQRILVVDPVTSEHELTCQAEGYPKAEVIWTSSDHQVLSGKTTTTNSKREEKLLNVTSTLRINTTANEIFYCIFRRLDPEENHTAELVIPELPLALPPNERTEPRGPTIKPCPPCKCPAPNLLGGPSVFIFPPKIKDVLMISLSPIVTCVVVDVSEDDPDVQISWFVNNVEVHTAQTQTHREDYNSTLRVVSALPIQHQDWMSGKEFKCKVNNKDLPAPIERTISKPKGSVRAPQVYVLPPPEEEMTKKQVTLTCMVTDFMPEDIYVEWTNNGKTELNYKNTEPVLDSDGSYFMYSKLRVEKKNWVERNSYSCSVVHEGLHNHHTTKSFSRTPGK
Test: SPR (Biacore), mAb captured, 25C
ATTRIBUTE MEASURED: kon (M⁻¹ s⁻¹)
Give the quantity in M⁻¹ s⁻¹, number only.

{"BINDER": "H1H8314N (antibody, human IgG1, V domains shown) VH: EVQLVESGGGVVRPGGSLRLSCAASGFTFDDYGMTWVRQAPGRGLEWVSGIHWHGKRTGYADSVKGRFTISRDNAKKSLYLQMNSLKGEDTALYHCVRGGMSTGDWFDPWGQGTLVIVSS VL: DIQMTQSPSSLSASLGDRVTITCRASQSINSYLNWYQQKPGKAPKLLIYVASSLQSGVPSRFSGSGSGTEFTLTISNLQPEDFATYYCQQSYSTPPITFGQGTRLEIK", "kon [M⁻¹ s⁻¹]": "2.58e+06"}
{"BINDER": "H1H8323N (antibody, human IgG1, V domains shown) VH: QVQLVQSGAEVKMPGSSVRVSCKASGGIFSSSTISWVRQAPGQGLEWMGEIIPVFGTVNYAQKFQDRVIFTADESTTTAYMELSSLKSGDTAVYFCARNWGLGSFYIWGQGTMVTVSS VL: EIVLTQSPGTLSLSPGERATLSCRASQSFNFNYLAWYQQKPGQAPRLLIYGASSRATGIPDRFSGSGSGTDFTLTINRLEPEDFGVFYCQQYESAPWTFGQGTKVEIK", "kon [M⁻¹ s⁻¹]": "2.67e+06"}

We now examine a further binder.
Data request: Supply recorded kon for H1H9329P (antibody, human IgG1, V domains shown) VH: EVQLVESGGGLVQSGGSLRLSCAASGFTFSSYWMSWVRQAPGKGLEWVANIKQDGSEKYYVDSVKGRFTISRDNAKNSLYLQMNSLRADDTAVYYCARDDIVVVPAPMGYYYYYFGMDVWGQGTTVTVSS VL: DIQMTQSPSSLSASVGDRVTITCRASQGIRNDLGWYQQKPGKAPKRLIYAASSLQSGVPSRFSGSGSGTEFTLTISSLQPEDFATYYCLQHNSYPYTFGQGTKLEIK here.
Data returned: 1.74e+06
